Sourced from patent US20100137440A1

- Test system: B. subtilis 168 strain 1A1 (WT)
- test name: Sporulation assay, WT strain

compound	formation of viable spores (in words)
NCC(=O)CCC(N)C(=O)O (racemic)	do not
Nc1cc(C[C@H](N)C(=O)O)ccc1O	do not

* * *

- System: B. subtilis M2 strain
- test name: Sporulation assay, M2 strain
- particulars: 2 mM analog; spores after heat shock relative to CFU before heat shock
assay endpoint: % Viable spore formation, M2 (%)
Report only the number, with the unit % understood.

Worked cases, % Viable spore formation, M2 given:
molecule	target or test system	measurement unit	result number
NCC(=O)CCC(N)C(=O)O (racemic)	B. subtilis M2 strain	%	9
Nc1cc(C[C@H](N)C(=O)O)ccc1O	B. subtilis M2 strain	%	75

# input Form field: reported % Viable spore formation, M2 of NCCS(=O)(=O)C[C@H](N)C(=O)O [Compound 1, L-3-[(2-aminoethyl)-sulfonyl]-alanine]
# output 17

# input Form field: reported % Viable spore formation, M2 of NCCOC[C@H](N)C(=O)O
# output 65

* * *

- Test system: 179-nucleotide receptor domain (179 lysC) of the lysC lysine riboswitch
- test name: In-line probing assay, ligand binding to 179 lysC
- Set-up: species or system B. subtilis
- particulars: in vitro
assay endpoint: binding to 179 lysC / lysine aptamer (in words)

compound	result
NC/C=C/CC(N)C(=O)O (racemic) [Compound 4, DL-trans-2,6-diamino-4-hexenoic acid]	bind well
NCCS(=O)(=O)C[C@H](N)C(=O)O [Compound 1, L-3-[(2-aminoethyl)-sulfonyl]-alanine]	bind well
NCCOC[C@H](N)C(=O)O	bind well

* * *

- Test system: B. subtilis 168 strain 1A1 (WT)
- test name: Sporulation assay, WT strain
- particulars: 2 mM analog; spores after heat shock relative to CFU before heat shock
Items are presented alongside their recorded % Viable spore formation, WT.
Report only the number, with the unit % understood.

Worked cases, % Viable spore formation, WT given:
molecule	% Viable spore formation, WT (%)
NCCOC[C@H](N)C(=O)O [Compound 2, L-4-oxalysine]	6
Nc1cc(C[C@H](N)C(=O)O)ccc1O [Compound 9, L-3-aminotyrosine]	75
NCC(=O)CCC(N)C(=O)O (racemic) [Compound 8, DL-5-oxolysine]	47

Moving on to another molecule below.
# input # returns recorded % Viable spore formation, WT (system: B. subtilis 168 strain 1A1 (WT)) for NCCS(=O)(=O)C[C@H](N)C(=O)O [Compound 1, L-3-[(2-aminoethyl)-sulfonyl]-alanine]
# output 0
